# System Under Test: CFTR ΔF508 mutant (Homo sapiens, UniProt P13569, DEL508-508)
# Sequence (P13569 with tags, fused parts or gaps DEL508-508): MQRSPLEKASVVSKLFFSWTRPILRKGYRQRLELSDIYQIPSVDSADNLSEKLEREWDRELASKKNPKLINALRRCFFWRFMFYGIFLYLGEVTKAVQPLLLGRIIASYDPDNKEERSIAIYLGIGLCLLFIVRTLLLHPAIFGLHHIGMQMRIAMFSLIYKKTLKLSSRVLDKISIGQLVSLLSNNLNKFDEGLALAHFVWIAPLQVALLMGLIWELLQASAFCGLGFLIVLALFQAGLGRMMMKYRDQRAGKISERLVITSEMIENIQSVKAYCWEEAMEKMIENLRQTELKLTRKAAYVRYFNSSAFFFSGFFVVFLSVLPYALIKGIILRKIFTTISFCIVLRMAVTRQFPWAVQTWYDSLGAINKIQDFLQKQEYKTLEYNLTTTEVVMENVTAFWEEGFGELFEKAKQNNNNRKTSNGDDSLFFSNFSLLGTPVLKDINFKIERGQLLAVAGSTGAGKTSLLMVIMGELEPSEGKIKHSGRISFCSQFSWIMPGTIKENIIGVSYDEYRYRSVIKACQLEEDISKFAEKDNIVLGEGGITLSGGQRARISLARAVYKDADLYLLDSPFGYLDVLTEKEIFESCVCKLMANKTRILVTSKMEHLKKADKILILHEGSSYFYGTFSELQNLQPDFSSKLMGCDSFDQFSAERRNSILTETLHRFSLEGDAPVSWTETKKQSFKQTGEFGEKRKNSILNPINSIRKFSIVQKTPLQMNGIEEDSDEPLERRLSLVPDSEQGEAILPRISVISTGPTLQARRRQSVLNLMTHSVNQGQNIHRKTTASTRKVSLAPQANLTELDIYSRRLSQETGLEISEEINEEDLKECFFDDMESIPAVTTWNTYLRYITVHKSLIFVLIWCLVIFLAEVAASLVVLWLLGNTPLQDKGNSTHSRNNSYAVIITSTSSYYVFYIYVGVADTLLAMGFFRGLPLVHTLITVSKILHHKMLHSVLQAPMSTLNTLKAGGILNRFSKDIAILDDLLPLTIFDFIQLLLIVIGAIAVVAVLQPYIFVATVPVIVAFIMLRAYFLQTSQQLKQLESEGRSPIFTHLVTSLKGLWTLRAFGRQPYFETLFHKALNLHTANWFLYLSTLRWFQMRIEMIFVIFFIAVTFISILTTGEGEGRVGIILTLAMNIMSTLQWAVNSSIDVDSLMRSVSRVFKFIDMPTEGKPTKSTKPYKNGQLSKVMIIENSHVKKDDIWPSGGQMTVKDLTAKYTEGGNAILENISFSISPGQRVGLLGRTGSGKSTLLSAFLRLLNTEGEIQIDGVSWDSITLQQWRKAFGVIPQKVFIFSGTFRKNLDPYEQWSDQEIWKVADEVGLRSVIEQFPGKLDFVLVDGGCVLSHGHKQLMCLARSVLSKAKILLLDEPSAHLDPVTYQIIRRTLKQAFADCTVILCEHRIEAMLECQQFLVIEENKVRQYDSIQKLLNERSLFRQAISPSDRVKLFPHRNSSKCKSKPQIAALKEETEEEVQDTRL
# Assay Explanation: YFP-halide influx assay for the CFTR-ΔF508 mutation (CFBE41o- cells)
# Conditions: forskolin 10.67 μM, from (1−F/F0) vs concentration plot
Measured Metric: EC50 (nM)

A = CNC(=O)[C@@H](NC(=O)c1ncc(S(=O)(=O)c2ccc(OC(F)(F)F)cc2)cc1N)C(C)(C)C
B = Nc1cc(S(=O)(=O)c2ccc(OC(F)(F)F)cc2)cnc1C(=O)N1CC2(COC2)C1
So which one has the bigger EC50 here, A or B ? Let me know the label of the one you choose.
A

----------
# System Under Test: CFTR ΔF508 mutant (Homo sapiens, UniProt P13569, DEL508-508)
# Construct: expressed in transfected cells; host or cells: CFBE41o- cells, adenoviral transduction
# Assay Explanation: YFP-halide influx assay for the CFTR-ΔF508 mutation (CFBE41o- cells)
# Assay type: cell-based
# Conditions: forskolin 10.67 μM
Measured Metric: % Activation (%)

Study these solved cases before continuing.
| Compound | System Under Test | % Activation, % |
| --- | --- | --- |
| CN1CC(NC(=O)c2ncc(S(=O)(=O)c3ccc(OC(F)(F)F)cc3)cc2N)C1 | CFTR ΔF508 mutant (Homo sapiens, UniProt P13569, DEL508-508) | 44.6 |
| C[C@H](O)CNC(=O)c1nc(-c2ccc(F)cc2)c(S(=O)(=O)CCO)cc1N | CFTR ΔF508 mutant (Homo sapiens, UniProt P13569, DEL508-508) | 8.9 |
| CC[C@H](NC(=O)c1ncc(S(=O)(=O)c2ccc(OC(F)(F)F)cc2)cc1N)C(N)=O | CFTR ΔF508 mutant (Homo sapiens, UniProt P13569, DEL508-508) | 96.5 |
| CCS(=O)(=O)c1cc(N)c(C(=O)NC[C@H](C)O)nc1C1CC1 | CFTR ΔF508 mutant (Homo sapiens, UniProt P13569, DEL508-508) | 68.5 |
| COC[C@H](O)CNC(=O)c1ncc(S(=O)(=O)c2ccc(C(F)(F)F)cc2F)cc1N | CFTR ΔF508 mutant (Homo sapiens, UniProt P13569, DEL508-508) | 109.5 |

I = CC(C)C[C@H](CO)NC(=O)c1ncc(S(=O)(=O)c2ccc(OC(F)(F)F)cc2)cc1N
II = Nc1cc(S(=O)(=O)c2ccc(C(F)(F)F)cc2)cnc1C(=O)NC1(CO)CC1
I'm curious whether I or II has the smaller % Activation number. Which is it? Kindly give the label for the entry you pick.
I
(I: 41.4%, II: 72.4%)

----------
# System Under Test: CFTR ΔF508 mutant (Homo sapiens, UniProt P13569, DEL508-508)
# Construct: expressed in transfected cells; host or cells: CFBE41o- cells, adenoviral transduction
# Assay Explanation: YFP-halide influx assay for the CFTR-ΔF508 mutation (CFBE41o- cells)
# Format: cell-based
# Conditions: forskolin 10.67 μM
Measured Metric: % Activation (%)

| Compound | Unit Tag | % Activation |
| --- | --- | --- |
| Nc1cc(S(=O)(=O)c2ccc(C(F)(F)F)cc2)cnc1C(=O)NC[C@H](O)C(F)(F)F [Compound 64] | % | 107.0 |
| Nc1cc(S(=O)(=O)c2ccc(C(F)(F)F)cc2F)cnc1C(=O)N1CC(F)(F)C1 [Compound 164] | % | 102.0 |
| Nc1cc(S(=O)(=O)c2ccc(OC(F)(F)F)cc2)cnc1C(=O)NCC(=O)NC1CC1 [Compound 58] | % | 92.2 |
| COCC(O)CCNC(=O)c1ncc(S(=O)(=O)c2ccc(OC(F)(F)F)cc2)cc1N (centres unmarked) [Compound 54] | % | 89.2 |
| CC(O)(CNC(=O)c1ncc(S(=O)(=O)c2ccc(F)cc2)cc1N)C(F)(F)F (centres unmarked) [Compound 19] | % | 113.3 |
| Nc1cc(S(=O)(=O)c2ccc(C(F)(F)F)cc2)cnc1C(=O)NC[C@@H]1CCOC1 [Compound 102] | % | 119.0 |
| Nc1cc(S(=O)(=O)c2ccc(C(F)(F)F)cc2)cnc1C(=O)NC[C@H]1CCOC1 [Compound 101] | % | 106.5 |
| Nc1cc(S(=O)(=O)c2ccc(OC(F)(F)F)cc2)cnc1C(=O)NCC1CC(F)(F)C1 [Compound 153] | % | 105.0 |
